// values below are IC50; system is Endothelin-converting enzyme 1 (Rattus norvegicus)
Sequence (P42893 whole entry): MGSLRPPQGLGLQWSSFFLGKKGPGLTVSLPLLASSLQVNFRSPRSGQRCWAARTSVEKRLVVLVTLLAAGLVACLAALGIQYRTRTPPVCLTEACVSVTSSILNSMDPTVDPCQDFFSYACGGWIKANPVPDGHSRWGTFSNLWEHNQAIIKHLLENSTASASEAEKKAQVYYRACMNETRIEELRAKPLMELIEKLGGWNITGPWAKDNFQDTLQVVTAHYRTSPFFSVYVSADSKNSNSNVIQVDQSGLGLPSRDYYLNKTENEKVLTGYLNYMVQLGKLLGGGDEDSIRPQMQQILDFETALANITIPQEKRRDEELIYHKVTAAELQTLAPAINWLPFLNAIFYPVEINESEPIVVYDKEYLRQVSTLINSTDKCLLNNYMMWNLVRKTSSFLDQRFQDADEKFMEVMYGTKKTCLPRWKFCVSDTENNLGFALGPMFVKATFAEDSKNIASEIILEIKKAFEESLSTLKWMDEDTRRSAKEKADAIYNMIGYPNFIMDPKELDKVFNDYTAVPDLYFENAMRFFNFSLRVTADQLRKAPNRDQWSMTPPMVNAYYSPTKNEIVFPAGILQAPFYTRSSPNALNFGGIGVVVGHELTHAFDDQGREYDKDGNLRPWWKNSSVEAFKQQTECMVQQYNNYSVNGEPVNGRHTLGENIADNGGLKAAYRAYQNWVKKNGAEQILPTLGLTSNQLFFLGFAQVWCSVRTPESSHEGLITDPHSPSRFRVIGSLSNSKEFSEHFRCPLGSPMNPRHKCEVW
Quantity Name: IC50 (nM)

{"Molecule": "O=C(N[C@@H](Cc1c[nH]c2ccccc12)C(=O)O)C(CS)Cc1cccc(-c2ccccc2)c1 (stereo partly specified)", "Tested System": "Endothelin-converting enzyme 1 (Rattus norvegicus)", "Quantity Name": "IC50", "Result Value": 40}
{"Molecule": "COc1ccc(-c2ccc(C[C@H](NC(=O)[C@@H](CS)Cc3ccccc3)C(=O)O)cc2)cc1", "Tested System": "Endothelin-converting enzyme 1 (Rattus norvegicus)", "Quantity Name": "IC50", "Result Value": 800}
{"Molecule": "O=C(N[C@@H](Cc1ccc(-c2ccc3ccccc3c2)cc1)C(=O)O)[C@@H](CS)Cc1ccccc1", "Tested System": "Endothelin-converting enzyme 1 (Rattus norvegicus)", "Quantity Name": "IC50", "Result Value": 300}

1 = O=C(N[C@@H](Cc1ccc(-c2cccs2)cc1)C(=O)O)[C@@H](CS)Cc1ccccc1
2 = O=C(N[C@@H](Cc1c[nH]c2ccccc12)C(=O)O)[C@@H](CS)Cc1ccccc1
[Q] Endpoint returns the identifier whose IC50 is numerically larger, either 1 or 2 . # answer = label of selected item
[A] 2

a = COC(=O)[C@H](Cc1c[nH]c2ccccc12)NC(=O)[C@H](CS)Cc1ccccc1
b = O=C(N[C@@H](Cc1ccccc1)C(=O)O)[C@@H](CS)Cc1ccccc1
[Q] Endpoint returns the identifier whose IC50 is numerically larger, either a or b . # answer = label of selected item
[A] a

1 = O=C(N[C@@H](Cc1ccc(O)cc1)C(=O)O)[C@@H](CS)Cc1ccccc1
2 = O=C(N[C@@H](Cc1ccc(OCc2ccccc2)cc1)C(=O)O)[C@@H](CS)Cc1ccccc1
3 = O=C(N[C@@H](Cc1ccc(-c2cccs2)cc1)C(=O)O)C(CS)Cc1cccc(Br)c1 (stereo partly specified)
4 = O=C(N[C@@H](Cc1ccc(-c2ccccc2)cc1)C(=O)O)[C@@H](CS)Cc1ccccc1
[Q] In this exercise, place the 4 molecules in ascending sequence of their recorded IC50. Response field: labels, in requested order.
[A] 3, 4, 2, 1
